Test target: human JAK1 (a.a. 837-1142) catalytic domain (Homo sapiens, UniProt P23458)
Sequence (P23458 849-1154): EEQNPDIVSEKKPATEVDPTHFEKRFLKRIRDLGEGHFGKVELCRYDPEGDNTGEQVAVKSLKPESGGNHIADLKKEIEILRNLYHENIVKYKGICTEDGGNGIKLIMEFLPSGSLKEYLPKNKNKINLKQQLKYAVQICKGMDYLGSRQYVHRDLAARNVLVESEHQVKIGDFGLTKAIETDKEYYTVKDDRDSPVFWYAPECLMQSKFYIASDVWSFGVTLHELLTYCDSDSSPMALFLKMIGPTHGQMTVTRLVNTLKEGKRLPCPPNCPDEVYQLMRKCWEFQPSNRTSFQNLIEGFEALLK
Recorded endpoint: IC50

> print(dat)
                  compound.structure.string  recorded.endpoint  experimental.value
1  N#CCC1(n2cc(-c3ncnc4[nH]ccc34)cn2)CN(C2CCN(C(=O)c3ccnc(C(F)(F)F)c3F)CC2)C1               IC50              < 5 nM

Cited source for all entries: patent US10899736B2
